- assaySystem: anti-CD28 scFv (VH - linker 1 - VL) (biotinylated (site not stated))
- Sequence (scFv, as listed by the source): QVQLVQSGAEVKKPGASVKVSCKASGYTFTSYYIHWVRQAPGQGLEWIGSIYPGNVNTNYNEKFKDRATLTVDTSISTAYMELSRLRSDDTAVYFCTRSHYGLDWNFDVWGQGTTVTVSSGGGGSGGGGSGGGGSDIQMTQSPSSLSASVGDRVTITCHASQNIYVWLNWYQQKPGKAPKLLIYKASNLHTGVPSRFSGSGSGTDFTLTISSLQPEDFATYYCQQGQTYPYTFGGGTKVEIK
- experimentNotes: phage ELISA as above, wells pre-incubated with soluble CD28 (competitor);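 note: ELISA of crude clonal phage supernatants added to wells pre-treated with soluble CD28 in blocking buffer, bound phage read out with HRP-conjugated anti-M13 antibody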
Where no end group is shown, it is not given here.
measureName: CD28 scFv signal in presence of CD28

Below, 3 binders whose answers are already recorded.
[
  {
    "binder": "MDFCPISLWHECFF (peptide, not shown: large carriers, Clonal phage of the Peptide-9 library) [Phage-151]",
    "CD28 scFv signal in presence of CD28": 0.129
  },
  {
    "binder": "MSWCPQDLWHVCFN (peptide, not shown: large carriers, cysteine pairing not given here; also: displayed as fusion to phage pIII, linker and pIII sequence not given here, Clonal phage of the Peptide-9 library) [Phage-167]",
    "CD28 scFv signal in presence of CD28": 0.112
  },
  {
    "binder": "MDWCPRHLWDLCFA (peptide, not shown: large carriers, cysteine pairing not given here; also: displayed as fusion to phage pIII, linker and pIII sequence not given here, Clonal phage of the Peptide-9 library) [Phage-166]",
    "CD28 scFv signal in presence of CD28": 0.096
  }
]

Working through the 2 binders below one at a time, give CD28 scFv signal in presence of CD28 for each.
1. MDWCPKDLWHECFN (peptide, not shown: large carriers, cysteine pairing not given here; also: displayed as fusion to phage pIII, linker and pIII sequence not given here, Clonal phage of the Peptide-9 library) [Phage-168]
2. MDWCPRSLWSYCFH (peptide, not shown: large carriers, Clonal phage of the Peptide-9 library) [Phage-157]

Resp:
1: 0.1; 2: 0.152
